- Target or system: OXA-11 (Pseudomonas aeruginosa, UniProt Q06778)
- Condition info: read-out: IC50 β-lactamase OXA-11; class (D); nitrocefin 200 μM, 30-min pre-incubation, enzyme 1.2 nM
Measured metric: pIC50
Remember, pIC50 is on a log scale: it is -log10 of the molar concentration.

Q: Give OXA-11 (Pseudomonas aeruginosa, UniProt Q06778) pIC50 for C/C(=N/O)c1cnn(C2=CC3CN(C2)C(=O)N3OS(=O)(=O)[O-])c1.[Na+] (centres unmarked) [Example 39]
Ans: 7.14

Q: So what pIC50 did NCCONC(=O)c1cnn(C2=CC3CN(C2)C(=O)N3OS(=O)(=O)[O-])c1.O=C(O)C(F)(F)F.[Na+] (centres unmarked) [Example 24] get with OXA-11 (Pseudomonas aeruginosa, UniProt Q06778)?
Ans: 7.02

Q: Hi! What's the reported pIC50 for NC(=O)c1cc(F)n(C2=CC3CN(C2)C(=O)N3OS(=O)(=O)[O-])n1.[Na+] (centres unmarked) [Example 30] on OXA-11 (Pseudomonas aeruginosa, UniProt Q06778)?
Ans: 7.54

Q: Record O=C1N2CC(n3cc(-c4nccs4)nn3)=CC(C2)N1OS(=O)(=O)[O-].[Na+] (centres unmarked) [Example 55] : what is its pIC50 with OXA-11 (Pseudomonas aeruginosa, UniProt Q06778)?
Ans: 7.60

Q: GET /values?readout=pIC50&system=OXA-11 (Pseudomonas aeruginosa, UniProt Q06778)&item= O=C(O)C(F)(F)F.O=C1N2CC(n3ccc(CNc4nccs4)n3)=CC(C2)N1OS(=O)(=O)[O-].[Na+] (centres unmarked) [Example 35]
Ans: 7.27

Q: What pIC50 appears in the records for this compound with OXA-11 (Pseudomonas aeruginosa, UniProt Q06778)? CC(=O)Nc1cnn(C2=CC3CN(C2)C(=O)N3OS(=O)(=O)[O-])c1.[Na+] (centres unmarked) [Example 21]
Ans: 5.85

Q: For the record O=C1N2CC(n3ccc(-c4ncco4)n3)=CC(C2)N1OS(=O)(=O)[O-].[Na+] (centres unmarked) [Example 78] , what value of pIC50 is listed for OXA-11 (Pseudomonas aeruginosa, UniProt Q06778)?
Ans: 8.19

Q: What measured pIC50 is associated with NC(=O)c1nn(C2=CC3CN(C2)C(=O)N3OS(=O)(=O)[O-])cc1F.[Na+] (centres unmarked) [Example 26] on OXA-11 (Pseudomonas aeruginosa, UniProt Q06778)?
Ans: 8.01

Q: Short answer please: pIC50, OXA-11 (Pseudomonas aeruginosa, UniProt Q06778), entry NCc1ccn(C2=CC3CN(C2)C(=O)N3OS(=O)(=O)[O-])n1.O=C(O)C(F)(F)F.[Na+] (centres unmarked) [Example 49]
Ans: 6.42

Q: Hello, I am looking for reported pIC50 with OXA-11 (Pseudomonas aeruginosa, UniProt Q06778) for NCc1cnn(C2=CC3CN(C2)C(=O)N3OS(=O)(=O)[O-])c1.O=C(O)C(F)(F)F.[Na+] (centres unmarked) [Example 15] . Could you help?
Ans: 6.57

Q: API: value(readout=pIC50, system=OXA-11 (Pseudomonas aeruginosa, UniProt Q06778)) for record NC(=O)c1cn(C2=CC3CN(C2)C(=O)N3OS(=O)(=O)[O-])nn1.[Na+] (centres unmarked) [Example 56]
Ans: 7.43

Q: Give the reported pIC50 for Cc1cc(C(N)=O)nn1C1=CC2CN(C1)C(=O)N2OS(=O)(=O)[O-].[Na+] (centres unmarked) [Example 23] (system: OXA-11 (Pseudomonas aeruginosa, UniProt Q06778)).
Ans: 5.96

Q: Recall the recorded pIC50 for N#Cc1ccn(C2=CC3CN(C2)C(=O)N3OS(=O)(=O)[O-])n1.[Na+] (centres unmarked) [Example 17] with OXA-11 (Pseudomonas aeruginosa, UniProt Q06778) and state it.
Ans: 7.20

Q: Field: pIC50 (OXA-11 (Pseudomonas aeruginosa, UniProt Q06778)). Entry: O=C1N2CC(n3cc(S(=O)(=O)NCCO)cn3)=CC(C2)N1OS(=O)(=O)[O-].[Na+] (centres unmarked) [Example 74]
Ans: 7.70

Q: Query pIC50 on OXA-11 (Pseudomonas aeruginosa, UniProt Q06778) for CC(=O)Nc1ccn(C2=CC3CN(C2)C(=O)N3OS(=O)(=O)O)n1.CCN(CC)CC (centres unmarked) [Example 33]
Ans: 8.08

Q: Param readout = pIC50; param system = OXA-11 (Pseudomonas aeruginosa, UniProt Q06778); param query = O=C([O-])CCc1cn(C2=CC3CN(C2)C(=O)N3OS(=O)(=O)[O-])nn1.[Na+].[Na+] (centres unmarked) [Example 65] ; response: value
Ans: 6.57

Q: Entry O=C1N2CC(n3ccnn3)=CC(C2)N1OS(=O)(=O)[O-].[Na+] (centres unmarked) [Example 2] , system OXA-11 (Pseudomonas aeruginosa, UniProt Q06778): what pIC50 was measured?
Ans: 7.40

Q: Return pIC50 measured with OXA-11 (Pseudomonas aeruginosa, UniProt Q06778) given this compound: O=C([O-])Cc1cn(C2=CC3CN(C2)C(=O)N3OS(=O)(=O)[O-])nn1.[Na+].[Na+] (centres unmarked) [Example 61]
Ans: 6.44

Q: Record lookup: for OXA-11 (Pseudomonas aeruginosa, UniProt Q06778), what pIC50 belongs to CN(C)C.NC(=O)CCc1nccn1C1=CC2CN(C1)C(=O)N2OS(=O)(=O)O (centres unmarked) [Example 73] ?
Ans: 7.06

Q: Write down the reported pIC50 of NCCNC(=O)Cc1ccn(C2=CC3CN(C2)C(=O)N3OS(=O)(=O)[O-])n1.O=C(O)C(F)(F)F.[Na+] (centres unmarked) [Example 48] , test system: OXA-11 (Pseudomonas aeruginosa, UniProt Q06778).
Ans: 6.70

Q: API: value(readout= pIC50, system= OXA-11 (Pseudomonas aeruginosa, UniProt Q06778), query= O=C1N2CC(n3cc(N4CCOCC4)cn3)=CC(C2)N1OS(=O)(=O)[O-].[Na+] (centres unmarked) [Example 20] )
Ans: 5.15

Q: State its pIC50 on OXA-11 (Pseudomonas aeruginosa, UniProt Q06778): NCc1cn(C2=CC3CN(C2)C(=O)N3OS(=O)(=O)[O-])nn1.O=C(O)C(F)(F)F.[Na+] (centres unmarked) [Example 57]
Ans: 6.77

Q: Request - read-out pIC50 | tested on OXA-11 (Pseudomonas aeruginosa, UniProt Q06778) | compound CN(C)Cc1cn(C2=CC3CN(C2)C(=O)N3OS(=O)(=O)[O-])nn1.[Na+] (centres unmarked) [Example 59]
Ans: 6.77
